Study Target: recombinant hCES1b (Homo sapiens, UniProt P23141)
Sequence (P23141 18-567): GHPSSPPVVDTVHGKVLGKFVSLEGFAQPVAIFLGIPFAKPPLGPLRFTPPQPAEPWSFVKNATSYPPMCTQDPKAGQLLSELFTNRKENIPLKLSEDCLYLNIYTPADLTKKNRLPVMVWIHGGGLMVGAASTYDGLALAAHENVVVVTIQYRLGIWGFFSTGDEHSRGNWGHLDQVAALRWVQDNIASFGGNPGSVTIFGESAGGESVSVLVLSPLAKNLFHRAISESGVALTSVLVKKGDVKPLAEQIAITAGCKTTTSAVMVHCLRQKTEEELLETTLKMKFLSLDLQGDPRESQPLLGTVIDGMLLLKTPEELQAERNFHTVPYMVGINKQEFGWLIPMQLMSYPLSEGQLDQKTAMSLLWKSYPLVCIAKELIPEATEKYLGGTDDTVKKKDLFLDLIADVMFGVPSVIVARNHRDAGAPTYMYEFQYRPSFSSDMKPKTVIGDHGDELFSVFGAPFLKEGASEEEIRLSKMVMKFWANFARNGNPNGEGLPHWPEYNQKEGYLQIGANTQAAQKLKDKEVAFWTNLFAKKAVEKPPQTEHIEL
Test Description: Inhibition of hCES1b-mediated fenofibrate hydrolysis (Ki)
Assay type: biochemical
Assay Context: matrix hCES1b; substrate fenofibrate; read-out: Ki, Competitive inhibition model

Compound | Study Target | Unit Spec | Ki
O=[N+]([O-])c1ccc(OP(=O)(O)Oc2ccc([N+](=O)[O-])cc2)cc1 [BNP, bis(4-nitrophenyl)-phosphate] | recombinant hCES1b (Homo sapiens, UniProt P23141) | µM | 0.044
O=c1c(O)c(-c2ccc(O)cc2)oc2cc(O)cc(O)c12 [Kaempferol] | recombinant hCES1b (Homo sapiens, UniProt P23141) | µM | 36.2

###

Each entry below carries its recorded Ki.
Study Target: recombinant hCES1b (Homo sapiens, UniProt P23141)
Sequence (P23141 18-567): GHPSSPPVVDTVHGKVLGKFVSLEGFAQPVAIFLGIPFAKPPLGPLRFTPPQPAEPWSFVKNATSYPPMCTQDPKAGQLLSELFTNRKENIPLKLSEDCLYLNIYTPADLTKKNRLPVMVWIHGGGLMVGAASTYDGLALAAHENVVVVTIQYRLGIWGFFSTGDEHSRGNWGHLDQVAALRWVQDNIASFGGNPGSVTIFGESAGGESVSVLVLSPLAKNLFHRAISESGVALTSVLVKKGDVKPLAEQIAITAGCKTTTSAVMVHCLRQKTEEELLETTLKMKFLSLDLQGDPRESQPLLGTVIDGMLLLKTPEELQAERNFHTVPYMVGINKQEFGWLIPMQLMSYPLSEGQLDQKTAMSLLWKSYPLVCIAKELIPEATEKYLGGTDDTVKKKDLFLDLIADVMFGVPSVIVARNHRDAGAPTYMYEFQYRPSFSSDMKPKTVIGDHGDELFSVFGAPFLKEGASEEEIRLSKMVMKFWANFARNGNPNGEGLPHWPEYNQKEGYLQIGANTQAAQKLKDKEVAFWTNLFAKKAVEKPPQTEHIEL
Test Description: Inhibition of hCES1b-mediated fenofibrate hydrolysis (Ki)
Type: biochemical
Assay Context: matrix hCES1b; substrate fenofibrate; read-out: Ki, Uncompetitive inhibition model

Molecule | Ki (µM)
O=c1c(O)c(-c2ccc(O)cc2)oc2cc(O)cc(O)c12 [Kaempferol] | 64.7
O=[N+]([O-])c1ccc(OP(=O)(O)Oc2ccc([N+](=O)[O-])cc2)cc1 [BNP, bis(4-nitrophenyl)-phosphate] | 0.096

Recorded values, source patent US20220401404A1.
